Each recorded value in this set is attributed to patent US20250281413A1.

assay: pH dependent solubility of Compound (A); type: physicochemical; conditions: pH 1.2, simulated gastric fluid

smi	solubility, µg/mL
C=CC(=O)N(C)CCOc1c(N)ncnc1-c1cc(F)cc(NC(=O)c2ccc(C3CC3)cc2F)c1C	3000

====

assay: pH dependent solubility of Compound (A); assay type: physicochemical; conditions: pH 3, aqueous buffer
readout_label: solubility (µg/mL)

molecule	measured
C=CC(=O)N(C)CCOc1c(N)ncnc1-c1cc(F)cc(NC(=O)c2ccc(C3CC3)cc2F)c1C [Compound (A)]	3

====

test: pH dependent solubility of Compound (A); assay type: physicochemical; conditions: pH 2, simulated gastric fluid
readout_label: solubility (mg/mL)

molecule	unit_of_measure	measured
C=CC(=O)N(C)CCOc1c(N)ncnc1-c1cc(F)cc(NC(=O)c2ccc(C3CC3)cc2F)c1C [Compound (A)]	mg/mL	0.3
